B1: HDV Ribozyme (parent)
chain: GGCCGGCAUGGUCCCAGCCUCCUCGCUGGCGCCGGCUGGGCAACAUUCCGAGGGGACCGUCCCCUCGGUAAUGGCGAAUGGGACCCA

# Variants of: B1
# measurement.protocol: self-cleavage, relative activity (ratio to wild type); higher = more cleavage; co-transcriptional
Please enter 1.0 where self-cleavage is greater than or equal to 0.3, and 0.0 where it is lower.

> print(dat)
                            polymer.sequence  qualitative.label
 1  GGCCGGCAUGGCCCCAGCCUCCUCGCUGGCGCCGGCUGGGCAACACUCCGAGGGGACCGUCCCCUCGGUAAUGGCGAAUGGGACCCA                0.0
 2  GGCCGGCAUGGUCCCAGCCUCCUCUCUGGCGCCGGCUUGGCAACAUUCCGAGGGGACCGUCCCCUCGGUAAUGGCGAAUGGGACCCA                0.0
 3  GGCCGGCAUGGUCCCAGCCUCCUCGCUGGCGCCGGCUGGGCAACAUUCCCAGGGGACCGUCUCCUCGGUAAUGGCGAAUGGGACCCA                1.0
 4  GGCCGGCAUGGUCCCAGCCUCCUUGCUGGCGCUGGCUGGGCAACAUUCCGAGGGGACCGUCCCCUCGGUAAUGGCGAAUGGGACCCA                1.0
 5  GGCCGGCAUGGUCCCAGCCUCCUCGCUGGUGCUGGCUGGGCAACAUUCCGAGGGGACCGUCCCCUCGGUAAUGGCGAAUGGGACCCA                1.0
 6  GGCCGGCAUGGUCCCAGCCUCCUCGCUGGCGCCGGCUGGGCAACAUUCCGACGGGACCGUCCCCUCGGUAAUGGCGACUGGGACCCA                0.0
 7  GGCCGGCAUGGACCCAGCCUCCUCGCUGGCGCCGGCUGGGCAACAUUCCGAGGGGACCGUCCCCUCGGUAAUGGCGAAUGGGACCCU                0.0
 8  GGACGGCAUGGUCCCAGCCUCCUCGCUGGCGCCGGCUGGGCAACAUUCCGAGGGGACCGUCCCCUCGGUAAUGGCGGAUGGGACCCA                1.0
 9  GGCCGGCAUGGCCCCAGCCUCCUCGCUGGCGCCGGCUGGGCAACAUUCCGAGGGGACCGUCCCCUCGGUAAUGGCGAUUGGGACCCA                0.0
10  GGCCGGCAUGGUCCCAGCCUCCACGCUGGCGCCGGCUGGGCAACAUUCAGAGGGGACCGUCCCCUCGGUAAUGGCGAAUGGGACCCA                1.0
11  GGCCGGCAUGGUCCCAGCCUCCUCGCUGGCGCCGGCUGGGCAAGAUUCCGCGGGGACCGUCCCCUCGGUAAUGGCGAAUGGGACCCA                1.0
